IC50 for assorted molecules
- assayed target: UniProt P36897
- Sequence (P36897 whole entry): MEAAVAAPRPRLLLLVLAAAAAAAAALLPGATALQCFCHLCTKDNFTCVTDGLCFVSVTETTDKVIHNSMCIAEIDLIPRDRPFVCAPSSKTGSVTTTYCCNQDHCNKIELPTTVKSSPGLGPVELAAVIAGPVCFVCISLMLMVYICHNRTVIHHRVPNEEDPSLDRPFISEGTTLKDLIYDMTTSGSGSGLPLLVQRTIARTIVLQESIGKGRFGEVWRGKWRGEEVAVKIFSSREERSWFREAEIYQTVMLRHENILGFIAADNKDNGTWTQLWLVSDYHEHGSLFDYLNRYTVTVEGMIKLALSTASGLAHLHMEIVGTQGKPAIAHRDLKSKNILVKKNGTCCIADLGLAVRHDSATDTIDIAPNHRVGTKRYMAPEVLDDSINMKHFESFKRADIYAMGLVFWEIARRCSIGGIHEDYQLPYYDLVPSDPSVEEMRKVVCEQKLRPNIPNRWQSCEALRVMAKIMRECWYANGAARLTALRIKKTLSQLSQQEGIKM
- run description: LanthaScreen™Eu Kinase Binding Assay TGFBR1 (ALK5): Exemplified compounds were screened in 1% DMSO (final concentration) by 3-fold serial dilutions from 10,000 nM to 0.316 nM to produce an IC50 or at single concentrations of 10,000, 1000 and 100 nM according to the following protocol. To low volume, white 384-well plates (Greiner Cat #784207) add 160 nL 100× compound in 100% DMSO, 3.84 uL kinase buffer (50 mM HEPES, pH 7.5, 0.01% BRIJ-35, 10 mM MgCl2, 1 mM EGTA), 8 uL 2× kinase/antibody mixture in kinase buffer (final ALK5 concentration of 5 nM; final Eu-anti-GST antibody concentration of 2 nM), 4 uL 4× Tracer #178 in kinase buffer (final concentration of 5 nM). Gently shake the plates for 30 seconds and incubate at room temperature for 1 hour before reading fluorescence on a plate reader. Percent inhibition was determined compared to DMSO only control (maximal ALK5 tracer binding) and sigmoidal dose response curve fit yielded IC50 values as indicated in Table 2.
Provide the reading as a plain figure in nM.

query smiles: CC(C)n1ccc(-c2nc(CNc3cc(F)cc(C#N)c3)[nH]c2-c2ccc3nccnc3c2)n1
attribute measured: IC50
unit of measure: nM
result: 138

Consider the additional molecule presented here.
# input Which IC50 value is on record for CC(C)n1ccc(-c2nc(CNc3cc(F)cc(F)c3)[nH]c2-c2ccc3nccnc3c2)n1 ?
# output 46.4

FYI, the data here is from ChEMBL document CHEMBL5728730.
